The reported numbers originate from PubChem BioAssay (NCATS).

experiment: BET inhibitor-based combinations targeting novel dependencies in MECOM-rearranged (r) AML: UCSD-AML1 cell line (AID 2202235); settings: UCSD-AML1 AML cells viability, CellTiter-Glo, 48 h; series mostly up to 46 µM; further: nearly all actives have a fitted effect of over 40% in size
Results filed as inconclusive are left out. The source made the active and inactive calls. The call rests on the fitted dose curve; in most records, active means well fitted inhibition curve with a large enough effect; inconclusive means small, poorly fitted or top-dose-only effect; inactive means no such curve, though single readings can be large or run the other way.
The categories you may choose from are active, inactive

Observe how each entry below is paired with its result.
Cc1nc2cnc3ccc(C#Cc4cccnc4)cc3c2n1-c1ccc(C(C)(C)C#N)cc1: active
Cc1oncc1C(=O)Nc1ccc(C(F)(F)F)cc1: inactive
COc1cc(OC)c(/C=C/S(=O)(=O)Cc2ccc(OC)c(NCC(=O)O)c2)c(OC)c1: active
CC(C)[C@H](O)C(=O)N[C@@H](C)C(=O)N[C@@H]1C(=O)N(C)CCc2ccccc21: inactive

q: In this assay, the call recorded for CC(C)(O)CC(=O)NCCn1ccc2ncnc(Nc3ccc(Oc4cccc(C(F)(F)F)c4)c(Cl)c3)c21 was what?
a: active
